Listing of recorded Survival (days) 10 mg/kg SSV po by entry.
system: ANKA strain of P. berghei; assay: Single dose STI in vivo screen in infected mice; parameters: species or system Plasmodium berghei; conditions: single 10 mg/kg po in SSV; untreated 6-7 days
Quick note: unit goes after the number.

N#Cc1ccc(C2(c3ccccc3)OOC3(O2)C2CC4CC(C2)CC3C4)cc1 (centres unmarked) ... 5.3 days
c1ccc2c(c1)-c1ccccc1C21OOC2(O1)C1CC3CC(C1)CC2C3 (centres unmarked) ... 5.7 days
O=C(O)CNC[C@H]1CC[C@]2(CC1)OO[C@]1(O2)C2CC3CC(C2)CC1C3 ... 8.8 days
O=C(NC[C@H]1CC[C@]2(CC1)OO[C@]1(O2)C2CC3CC(C2)CC1C3)c1cccnc1 ... 11.7 days
CC(=O)Nc1ccc(S(=O)(=O)N2CCC3(CC2)OOC2(O3)C3CC4CC(C3)CC2C4)cc1 (centres unmarked) ... 5.7 days

-- ask What measured Survival (days) 10 mg/kg SSV po goes with CC(C)(N)C(=O)NC[C@H]1CC[C@]2(CC1)OOC1(O2)C2CC3CC(C2)CC1C3 (some centres unmarked) ?
-- reply 8.7 days

-- ask Could you share which Survival (days) 10 mg/kg SSV po value was measured for "O=C(NC[C@H]1CC[C@]2(CC1)OO[C@]1(O2)C2CC3CC(C2)CC1C3)N1CCNCC1" ?
-- reply 11.2 days

-- ask Returns the measured Survival (days) 10 mg/kg SSV po for the input compound. Input: c1cn(CC[C@H]2CC[C@]3(CC2)OOC2(O3)C3CC4CC(C3)CC2C4)cn1 (some centres unmarked)
-- reply 8.0 days

* * *

tested on: ANKA strain of P. berghei; test: Single dose STI in vivo screen in infected mice; design: species or system Plasmodium berghei; conditions: single 10 mg/kg sc in 3% ethanol and 7% Tween 80; untreated 6-7 days
Labelling: Survival (days) 10 mg/kg sc reported below 9 days becomes 1; at or above becomes -1.

O=C(O)CCC(=O)N[C@H]1CC[C@]2(CC1)OOC1(O2)C2CC3CC(C2)CC1C3 (some centres unmarked) ... 1

-- ask is_below(Survival (days) 10 mg/kg sc, 9 days) for c1ccc(C[C@H]2CC[C@]3(CC2)OOC2(O3)C3CC4CC(C3)CC2C4)cc1 (some centres unmarked) ?
-- reply -1

* * *

system: Schistosoma mansoni adult worms (49-day-old); test: Effect on adult schistosomes (49-day-old) in infected mice; format: in vivo; settings: single 200 mg/kg per os; percentage of dead worm in the liver
A collection of molecules and their measured Adult worms day 49, per os 200 mg/kg, DEAD WORM (%)
Report the figure in % without appending any unit label.

Take a look at these entries with their results.
C1CC2(CCN1)OOC1(O2)C2CC3CC(C2)CC1C3.Cl (centres unmarked) [OZ80] ... 3
O=C(O)CC1CCC2(CC1)OOC1(O2)C2CC3CC(C2)CC1C3 (centres unmarked) [OZ78] ... 29
O=C1CCC2(CC1)OOC1(O2)C2CC3CC(C2)CC1C3 (centres unmarked) [OZ05] ... 12
Cc1ccc(S(=O)(=O)O)cc1.NC[C@H]1CC[C@]2(CC1)OOC1(O2)C2CC3CC(C2)CC1C3 (some centres unmarked) [OZ207] ... 17

-- ask Tell me the measured Adult worms day 49, per os 200 mg/kg, DEAD WORM (%) of NC[C@H]1CC[C@]2(CC1)OOC1(O2)C2CC3CC(C2)CC1C3 (some centres unmarked) [OZ209] , please.
-- reply 34

* * *

test: Pharmacokinetics in dogs (IV and oral dosing); settings: in vivo; dog, oral 10 mg/kg; some values marked (V), not defined; read-out: Dog Oral Bioavailability 10 mg/kg
Measured bioavailability, listed per entry.
Give just the numeric value; % need not be written.

Please review the entries below; each comes with its answer.
Cc1ccc(S(=O)(=O)O)cc1.O=C(C[C@H]1CC[C@]2(CC1)OO[C@]1(O2)C2CC3CC(C2)CC1C3)N1CCNCC1 [OZ279] ... 32.8
NC(=O)CNC[C@H]1CC[C@]2(CC1)OOC1(O2)C2CC3CC(C2)CC1C3 (stereo partly shown) [OZ256] ... 42
NC[C@H]1CC[C@]2(CC1)OOC1(O2)C2CC3CC(C2)CC1C3 (stereo partly shown) [OZ209] ... 24.5

Next compound, bioavailability to be filled in.
-- ask Dear colleague, I am looking for the recorded bioavailability of the following compound: CC(C)(N)CNC(=O)C[C@H]1CC[C@]2(CC1)OO[C@]1(O2)C2CC3CC(C2)CC1C3 [OZ277]
-- reply 87.9

* * *

system: ANKA strain of P. berghei; test: Single dose STI in vivo screen in infected mice; design: species or system Plasmodium berghei; conditions: single 10 mg/kg po in SSV; untreated 6-7 days
Survival (days) 10 mg/kg SSV po by entry:
# unit: days | format: bare number

CC(C)(C)NC(=O)N1CCC2(CC1)OOC1(O2)C2CC3CC(C2)CC1C3 (stereo not shown) [OZ143] ... 6.7
O=C(NC[C@H]1CC[C@]2(CC1)OOC1(O2)C2CC3CC(C2)CC1C3)c1c[nH]cn1 (stereo partly shown) [OZ263] ... 13.3
O=C1COC2(CCC3(CC2)OOC2(O3)C3CC4CC(C3)CC2C4)OC1 (stereo not shown) [OZ130] ... 8.0
N=C(N)NC(=O)C[C@H]1CC[C@]2(CC1)OO[C@]1(O2)C2CC3CC(C2)CC1C3 [OZ341] ... 8.0
COC(=O)C1(c2ccccc2)CCC2(CC1)OOC1(O2)C2CC3CC(C2)CC1C3 (stereo not shown) [OZ98] ... 5.3

-- ask Sample CCOC(=O)c1cccc([C@H]2CC[C@]3(CC2)OOC2(O3)C3CC4CC(C3)CC2C4)c1 (stereo partly shown) [OZ208] — what was its Survival (days) 10 mg/kg SSV po?
-- reply 6.7

-- ask Which Survival (days) 10 mg/kg SSV po is reported for this compound? O=C1c2ccccc2S(=O)(=O)N1C[C@H]1CC[C@]2(CC1)OOC1(O2)C2CC3CC(C2)CC1C3 (stereo partly shown) [OZ212]
-- reply 6.7

-- ask Which Survival (days) 10 mg/kg SSV po value belongs to CCNC(=O)NC[C@H]1CC[C@]2(CC1)OO[C@]1(O2)C2CC3CC(C2)CC1C3 [OZ291] ?
-- reply 8.0

-- ask Please look up its Survival (days) 10 mg/kg SSV po: COC(=O)c1cncn1C[C@H]1CC[C@]2(CC1)OOC1(O2)C2CC3CC(C2)CC1C3 (stereo partly shown) [OZ223]
-- reply 6.3

-- ask Bench note: what Survival (days) 10 mg/kg SSV po did NNC(=O)C[C@H]1CC[C@]2(CC1)OO[C@]1(O2)C2CC3CC(C2)CC1C3 [OZ340] show?
-- reply 9.2

-- ask For the compound shown here, O=C1OC2(CCC3(CC2)OOC2(O3)C3CC4CC(C3)CC2C4)c2ccccc21 (stereo not shown) [OZ149] , give the reported Survival (days) 10 mg/kg SSV po.
-- reply 6.0

-- ask Entry CC(C)(N)CNC(=O)C[C@H]1CC[C@]2(CC1)OO[C@]1(O2)C2CC3CC(C2)CC1C3 [OZ277] has what Survival (days) 10 mg/kg SSV po?
-- reply 9.3

-- ask Name the recorded Survival (days) 10 mg/kg SSV po for O=C(C[C@H]1CC[C@]2(CC1)OO[C@]1(O2)C2CC3CC(C2)CC1C3)NCc1ccccn1 [OZ295] .
-- reply 7.0

-- ask Entry under review: O=C(OC[C@H]1CC[C@]2(CC1)OOC1(O2)C2CC3CC(C2)CC1C3)n1ccnc1 (stereo partly shown) [OZ141] . Reported Survival (days) 10 mg/kg SSV po?
-- reply 8.0

* * *

test system: ANKA strain of Plasmodium berghei; assay: Single dose ED50/ED90/ED99 determination in infected mice; type: in vivo; settings: single dose po in SSV on day 1 post-infection; parasitemia day 3; nonlinear fitting
Structures can show the parent of a compound that is named as a salt.
parameter: ED99 (mg/kg)
# unit: mg/kg | format: bare number

Example molecules with recorded ED99:
c1cn(C[C@H]2CC[C@]3(CC2)OOC2(O3)C3CC4CC(C3)CC2C4)cn1 (stereo partly shown) [OZ179, hydrochloride] ... 6.6
CN1CCN(C(=O)C[C@H]2CC[C@]3(CC2)OOC2(O3)C3CC4CC(C3)CC2C4)CC1 (stereo partly shown) ... 6.2
Cc1ccc(S(=O)(=O)O)cc1.NC[C@H]1CC[C@]2(CC1)OOC1(O2)C2CC3CC(C2)CC1C3 (stereo partly shown) ... 3.0

Next:
-- ask If you can, please state the reported ED99 value of O=C(C[C@H]1CC[C@]2(CC1)OOC1(O2)C2CC3CC(C2)CC1C3)NO (stereo partly shown) .
-- reply 9.9
